Target: P-glycoprotein (P-gp) (Homo sapiens, UniProt P08183)
Sequence (P08183 whole entry): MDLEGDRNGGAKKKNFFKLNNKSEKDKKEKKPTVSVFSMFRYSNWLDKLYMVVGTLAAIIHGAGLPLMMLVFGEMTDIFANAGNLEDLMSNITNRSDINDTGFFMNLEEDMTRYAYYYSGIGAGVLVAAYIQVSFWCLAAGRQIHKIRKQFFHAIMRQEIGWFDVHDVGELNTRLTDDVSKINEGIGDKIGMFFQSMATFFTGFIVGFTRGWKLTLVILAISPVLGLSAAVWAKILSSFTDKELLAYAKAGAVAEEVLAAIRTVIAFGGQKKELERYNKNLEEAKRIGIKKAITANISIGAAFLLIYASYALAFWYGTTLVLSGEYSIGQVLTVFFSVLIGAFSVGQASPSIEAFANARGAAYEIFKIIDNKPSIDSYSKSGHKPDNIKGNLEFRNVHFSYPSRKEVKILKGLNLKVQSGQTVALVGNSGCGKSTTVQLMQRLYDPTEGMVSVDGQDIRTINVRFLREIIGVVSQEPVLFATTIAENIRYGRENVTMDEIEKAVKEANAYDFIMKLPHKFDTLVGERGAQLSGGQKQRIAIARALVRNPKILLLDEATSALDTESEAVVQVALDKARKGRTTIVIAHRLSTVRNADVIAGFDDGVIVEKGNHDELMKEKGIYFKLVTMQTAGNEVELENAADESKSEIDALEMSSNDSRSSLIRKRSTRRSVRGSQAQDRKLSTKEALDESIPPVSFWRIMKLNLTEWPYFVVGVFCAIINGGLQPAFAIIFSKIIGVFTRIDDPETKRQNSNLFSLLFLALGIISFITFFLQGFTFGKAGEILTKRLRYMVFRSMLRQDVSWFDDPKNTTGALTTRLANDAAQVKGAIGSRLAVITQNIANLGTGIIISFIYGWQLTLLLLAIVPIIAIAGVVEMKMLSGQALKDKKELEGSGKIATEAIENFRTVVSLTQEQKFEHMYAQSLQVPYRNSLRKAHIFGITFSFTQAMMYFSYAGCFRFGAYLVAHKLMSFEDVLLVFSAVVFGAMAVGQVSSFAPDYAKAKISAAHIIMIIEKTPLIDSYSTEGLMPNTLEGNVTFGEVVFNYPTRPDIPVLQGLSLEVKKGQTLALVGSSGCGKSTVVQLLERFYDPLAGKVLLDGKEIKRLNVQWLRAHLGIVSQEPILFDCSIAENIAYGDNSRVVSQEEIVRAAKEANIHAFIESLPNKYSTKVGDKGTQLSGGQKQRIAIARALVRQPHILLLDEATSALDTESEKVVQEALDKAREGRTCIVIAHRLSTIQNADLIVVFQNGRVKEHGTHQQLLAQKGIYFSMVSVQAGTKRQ
Experiment: calcein-AM efflux assay in L-MDR1 vs LLC-PK1 cells
Quantity Kind: Ki (µM)
A number alone suffices; assume µM.

Summary line: CC(C)C[C@H]1C(=O)N2CCC[C@H]2[C@]2(O)O[C@](NC(=O)[C@@H]3C=C4c5cccc6[nH]c(Br)c(c56)C[C@H]4N(C)C3)(C(C)C)C(=O)N12 , P-glycoprotein (P-gp) (Homo sapiens, UniProt P08183), reported Ki = 6.52
